test: reduction of Shn3 3'UTR firefly luciferase signal, primary screen, Schnurri-3 inhibitor project, cell-based, Clone20 osteoblasts, set 2 (AID 588674); settings: Clone20 osteoblast Shn3 3'UTR firefly luciferase, 24 h; at 12.5 µM;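 note: 0% = median of neutral control wells and 100% = pilot-screen positive control compound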
Hit rate of the full screen: of about 360,000 compounds, about 1,800 (0.5%) were called active.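 Rule for the calls: active = mean inhibition of at least 75% with every replicate also reaching 75%; inconclusive = mean inhibition at least 75% but some replicate below; inactive = mean inhibition below 75%.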 For the sample, actives were picked, then their nearest neighbours and some compounds at random.
# valid calls are 1 (active), -1 (inactive); nothing else

Task item: Assay result, entry CN(C)C(=O)c1ccc2c(c1)C1C3CCC(C3)C1C(c1ccccc1)N2 (stereo unspecified) — outcome?
Reply: -1

Task item: Each compound tested received a call. Report the one for `CCn1nc(C(=O)Nc2ccc(N3CCOCC3)cc2)c2ccccc2c1=O` .
Reply: -1

Task item: What did the test return for COc1ccc(NC(=O)C2Cc3c(-c4cccc(NC(C)=O)c4)ccnc3O2)cc1OC (stereo unspecified) ?
Reply: -1

Task item: Called result for `Cc1ccccc1C(=O)NC(=S)Nc1ccc(N2CCN(C(=O)c3ccccc3)CC2)cc1`
Reply: 1

Task item: Hello, I am checking results. What call was entered for `CN(C)S(=O)(=O)c1cccc(NC(=O)COC(=O)C2(c3ccccc3F)CCCC2)c1` ?
Reply: -1

Task item: I'd appreciate the recorded outcome for `COc1ccc(Cc2nnc(SC)[nH]c2=O)cc1` from this test.
Reply: -1
